Assay: Pharmacokinetic evaluation in beagle dogs
Type: in vivo
Details: male, dog, plasma, Oral 2 mg/kg, read-out: Half-life T1/2 (converted)
metric: half-life (h)
Respond numerically; units are h and should not be typed.

Q: Please look up its half-life: COc1cc2nc(C)nc(N[C@H](C)c3cccc(C#N)c3C)c2cc1N1CCC(C)(O)CC1
Result: 4.21

---

Experiment: Pharmacokinetic evaluation in ICR mice
Type: in vivo
Settings: male, mouse, plasma, PO 10 mg/kg, read-out: Half-life T1/2 (converted)
Please provide measured half-life for the entries that follow.
Respond numerically; units are h and should not be typed.

Q: Please look up its half-life: COc1cc2nc(C)nc(N[C@H](C)c3cccc(C#N)c3C)c2cc1N1CCC2(CCOCC2)CC1
Result: 0.85

Q: Please look up its half-life: CC(=O)c1cc2nc(C)nc(N[C@H](C)c3cccc(C#N)c3C)c2cc1N1CCC2(CC1)COC2
Result: 1.98

Q: Please look up its half-life: COc1cc2nc(C)nc(N[C@H](C)c3cccc(C#N)c3C)c2cc1C1(OC)CCN(C(C)=O)CC1
Result: 2.29
